Method summary: soluble on expression in E. coli; label from the status in PepcDB or PDB records
Measured parameter: soluble on expression in E. coli

Here's what some known entries look like.
INSERT INTO measurements (record_sequence, reading) VALUES
  ('MGSDKIHHHHHHMNEAAKQLYITQPSLSNAVRNLETEMGIQIFIRNPKGITLTKDGMEFLSYARQILEQTALLEERYKGDNTSRELFSVSSQHYAFVVNAFVALFNGTDMTQYELFLRETRTWEIIDDVKNFRSEIGVLFLNSYNRDVLTKLFDDNSLIATTLFTTTPHIFVSKSNPLANRKKLNMKDLEDYPYLSYDQGLHNSFYFSEEMMSQIPHPKSIVVSDRATLFNLMIGLDGYTVATGILNSKLNGDEIVAIPLDVDDVIDIVYIRHDKANLSKMGQKFIDYLLEEVSFNHKNKQS', 'not soluble'),
  ('MEWIERLNKAMSYIEEHITEEIDFEQTAKIACCSAYHFQRMFTYMAGIPLSEYIRRRRMTLAAVELQSSDEKVIDIALKYGYASPTAFNRAFQSVQGITPSAAKKKGTPVKSYPPLSFAITIKGVEGMNYRIEEKEAFRIIGIAQSMSKNLEENFAVVPQMWGKAAADGTIQKLASMIEGQPAGLLGVSICNNEEDWRYFIAVSGTRPAEAPFEEYRVPASTWAVFPGTGTNLSVQDLERRIVTEWLPTSGYEYGSAPDIEVYISPNPENAKYEVWIPVVKKQ', 'not soluble'),
  ('MSLKEGAWGIIGVPFDSTTSYHPGSRFGPIVVREASYGFEKYNTIFNTQLDNIFYDFGDVNVVFGNCKKTCDIIEDTVNELSDLKIKPLTIGGEHSLTIGVLNSLTKKYDDLTVVHLDAHRDLADTFIGELYSHASVMKRVHEMGVKELVQIGIRSASKEEEDFVKNQSNITTFKNNDVFHHLDNIEYYLSIIDTPIYLSIDMDVFDPSIAPTVGNPTPNGIAYGHIEAMLQTLSLKNVVGMDVVETAGDRLGDITAVSASKIIYDFLSLLEGHHHHHH', 'not soluble'),
  ('MYPIKIIYVYKAMLDKVIDKAGGVLTEAYGDVVKPVLKPIGEVLGFLPRSIKCLLQGWEKWIINGEESIRLTSEAIRKKIEATPAERLTEPEPYVVVPAIQQLGYSHSSEELRELYANLIVSSMDVEKKGLVHPAFVDILKKLTPDEAKIIQYFKGRDFIEYLDLRAYIKEEEGGGFRTIADHKTLLSDEVNFFMPDNELAYLQNLVCLGILKDCEGTFTVIEDNYKLIENKLGLESLRNQYVPEQFSSIRSEKSFYQVTDFGRNFINTVTE', 'not soluble'),
  ('MGSDKIHHHHHHMSNRDKILSYRDLIKKKLIPLINADYVLLDVPNHPNIGDNLIWEGELRFLENIHYKCIYSANVHNWDENKIKDAKIILFHGGGNWGDLYRECQEHRLYIAEKFKDKRIIIFPQTVWYNNKSILPIDCKIFNNHADIHICLRDQMSMDILSNYVDAKKLYLLPDMAFFVDVEAMPMRKVRNDCILFMLRTDSEIDDITFKLESDFDVKDWPTFSNNKYILLLYSYFEYFKVVVSKRLQKCKFLNVFVSPIYGLNRKNNRERYIYKGINFFSNYEIIYTTRLHGLILGILMDKKVIIVDNKYNKCKNYYDTWLREFDNIELMS', 'not soluble'),
  ('SLAEGLITGTVLTQFDQLYRKKPGMTMSCAKLPQNISKNRYRDISPYDATRVILKGNEDYINANYINMEIPSSSIINQYIACQGPLPHTCTDFWQMTWEQGSSMVVMLTTQVERGRVKCHQYWPEPTGSSSYGCYQVTCHSEEGNTAYIFRKMTLFNQEKNESRPLTQIQYIAWPDHGVPDDSSDFLDFVCHVRNKRAGKEEPVVVHCSAGIGRTGVLITMETAMCLIECNQPVYPLDIVRTMRDQRAMMIQTPSQYRFVCEAILKVYEEGFVKPLTTSTNK', 'not soluble');

Dear colleague, could you please provide soluble on expression in E. coli for the sequences listed below?
1. SVIGRIHSFESCGTVDGPGIRFITFFQGCLMRCLYCHNRDTWDTHGGKEVTVEDLMKEVVTYRHFMNASGGGVTASGGEAILQAEFVRDWFRACKKEGIHTCLDTNGFVRRYDPVIDELLEVTDLVMLDLKQMNDEIHQNLVGVSNHRTLEFAKYLANKNVKVWIRYVVVPGWSDDDDSAHRLGEFTRDMGNVEKIELLPYHELGKHKWVAMGEEYKLDGVKPPKKETMERVKGILEQYGHKVMF
2. MSLRHSGAPLSPRNVCPMKTIAPCMAAMMLLSGCNGVPTSYVSDPVYSQAFVVTSGAPLPMLLMASAIQWNEDYAVTAKHTPFLRNVVHEGLGDVVFFKHKASSVPHWRQYVPGEAVTAVGFNSFMMPMQGKGHALSSLVRLEGTPGSVFYSVHDGPITKGMSGGPVFADDGKVVGINVAIIPTDEINAGKRPDLVGKDRISVFMSFSEIDKEWRRYQYLLAHKAKPKAPAAVKGYVAVAAKEGHHHHHH
3. MNAITPTPGIDKEAFDRAANAVRRLCGWHIFPIIEETITLDSPGDSLLVLPTKHLVEIINVTIDGTTYPLSDFRSSPDGLLVKRHGRFPRGIAMVTVTMKHGYEKPTEILGVINDMARRANESNLTQLNVGGISVGATNSATPQSSEWRIVDELRLGPLP
4. TATNHQGLPAVDSEILEMPPEKADGVVEGIDVNGPKAQLMLRYPDGKREQITLPEQAKLLALVKHVQSKGYPNERFELLTNFPRRKLSHLDYDITLQEAGLCPQETVFVQE
5. MSYGPQLPAFLMKGQIKENEVDDEAEEGAPQVYGPVIPGMEEPKNEKEKHDDQEETSVFGPSIPKEVREKLQNVENPAEDDEEDEEFPSQSYGPSIPSNFRPTVGPSIPGTFGDDSDEDIGPMPVAKGDEEKEAIDRAYRMVLQKEAEDDEKNFQPKREEWMTSVPKKLGNFGLGARTFKKGTTSERDASWEDAPGAKKRRNEETRSARSVGIAAADARQAAIVAEKTSGPSLLEIHQKKRDEKVKDAGYAQGERRPFDREKDMEVRGLKPGGSKEAVDRMKEFADRFANSKDQRFL

// result
["soluble", "not soluble", "not soluble", "soluble", "not soluble"]
